Tested on: Lewis lung carcinoma (LLC) tumour
methodDescription: Biodistribution in LLC tumour model in vivo
Parameters: species or system C57BL/6 mice
reportedConditions: 120 min post injection
propertyMeasured: % ID Urinary (urinary excretion), mean (% ID)

NC(=O)[C@H](CCCCNC(=O)CON=Cc1ccc([18F])cc1)NC(=O)CCOCCOCCOCCOCCOCCOCCOCCOCCOCCOCCOCCNC(=O)CCOCCOCCOCCOCCOCCOCCOCCOCCOCCOCCOCCNC(=O)CCN(C1(C(=O)NO)CCCC1)S(=O)(=O)c1ccc(Oc2ccc(F)cc2)cc1 [Compound 48B]; 59.33

[I] O=C(CCN(C1(C(=O)NO)CCCC1)S(=O)(=O)c1ccc(Oc2ccc(F)cc2)cc1)NCCc1ccc(O)c([123I])c1 [Compound 24A]
[II] NC(=O)[C@H](Cc1ccc(O)c([123I])c1)NC(=O)CCOCCOCCOCCOCCOCCOCCOCCOCCOCCOCCOCCNC(=O)CCOCCOCCOCCOCCOCCOCCOCCOCCOCCOCCOCCNC(=O)CCN(C1(C(=O)NO)CCCC1)S(=O)(=O)c1ccc(Oc2ccc(F)cc2)cc1 [Compound 32A]
Query: Lower value of % ID Urinary (urinary excretion), mean belongs to which: I or II ? Please respond with the label that marks your chosen entry.
Reply: I
(I: 7.22 % ID, II: 64.10 % ID)

###

System: Lewis lung carcinoma (LLC) tumour
methodDescription: Biodistribution in LLC tumour model in vivo
Parameters: species or system C57BL/6 mice
reportedConditions: 60 min post injection
propertyMeasured: Tumour/Muscle, mean

Some solved entries appear below for comparison.
NCCCC[C@H](NC(=O)CCN(C1(C(=O)NO)CCCC1)S(=O)(=O)c1ccc(Oc2ccc(F)cc2)cc1)C(=O)N[C@@H](CCCCN)C(=O)N[C@@H](CCCCN)C(=O)N[C@@H](CCCCN)C(=O)N[C@@H](CCCCN)C(=O)NCCOCCOCCOCCNC(=O)COCC(=O)N[C@@H](Cc1ccc(O)c([123I])c1)C(N)=O [Compound 42A]; 3.52
NC(=O)[C@H](Cc1ccc(O)c([123I])c1)NC(=O)COCC(=O)NCCOCCOCCOCCNC(=O)[C@H](CCC(=O)O)NC(=O)[C@H](CCC(=O)O)NC(=O)[C@H](CCC(=O)O)NC(=O)[C@H](CCC(=O)O)NC(=O)[C@H](CCC(=O)O)NC(=O)CCN(C1(C(=O)NO)CCCC1)S(=O)(=O)c1ccc(Oc2ccc(F)cc2)cc1 [Compound 38A]; 2.27
NC(=O)[C@H](CCCCNC(=O)CON=Cc1ccc([18F])cc1)NC(=O)CCOCCOCCOCCOCCOCCOCCOCCOCCOCCOCCOCCNC(=O)CCOCCOCCOCCOCCOCCOCCOCCOCCOCCOCCOCCNC(=O)CCN(C1(C(=O)NO)CCCC1)S(=O)(=O)c1ccc(Oc2ccc(F)cc2)cc1 [Compound 48B]; 4.40

[A] NC(=O)[C@H](Cc1ccc(O)c([123I])c1)NC(=O)CCOCCOCCOCCOCCOCCOCCOCCOCCOCCOCCOCCNC(=O)CCN(C1(C(=O)NO)CCCC1)S(=O)(=O)c1ccc(Oc2ccc(F)cc2)cc1 [Compound 44A]
[B] O=C(CCN(C1(C(=O)NO)CCCC1)S(=O)(=O)c1ccc(Oc2ccc(F)cc2)cc1)NCCc1ccc(O)c([123I])c1 [Compound 24A]
[C] NC(=O)[C@H](Cc1ccc(O)c([123I])c1)NC(=O)CCOCCOCCOCCOCCOCCOCCOCCOCCOCCOCCOCCNC(=O)CCOCCOCCOCCOCCOCCOCCOCCOCCOCCOCCOCCNC(=O)CCN(C1(C(=O)NO)CCCC1)S(=O)(=O)c1ccc(Oc2ccc(F)cc2)cc1 [Compound 32A]
Query: Please rank these compounds by Tumour/Muscle, mean in descending order. Lab note: final answer is the ordered label list.
Reply: C, A, B
